In this section we review reported melting point values for a set of compounds.

Below: 5 compounds and their reported melting point.
smiles_record | melting point
CC(=O)O[C@@H]1[C@H](OC(C)=O)[C@@H](CN2C(=O)c3ccccc3C2=O)O[C@H]1n1cnc2c(N)nc(F)nc21 | 237 to 239 °C
CC(=O)O[C@@H]1[C@H](OC(C)=O)[C@@H](CI)O[C@H]1n1cnc2c(N)nc(Cl)nc21 | 93 °C
[N-]=[N+]=NC[C@H]1O[C@@H](n2cnc3c(N)nc(Cl)nc32)[C@H](O)[C@@H]1O | 222 to 223 °C
CNc1nc(C#N)nc2c1ncn2[C@@H]1O[C@H](C)[C@@H](O)[C@H]1O | 193 to 194 °C
CNc1nc(C#N)nc2c1ncn2[C@@H]1O[C@H](CSC)[C@@H](O)[C@H]1O | 193 to 194 °C

Q: Endpoint output: melting point of `CC(=O)O[C@@H]1[C@H](OC(C)=O)[C@@H](CI)O[C@H]1n1cnc2c(N)nc(F)nc21` . Value?
Result: 181 to 182 °C

Q: Endpoint output: melting point of `CSC[C@H]1O[C@@H](n2cnc3c(N)nc(NN)nc32)[C@H](O)[C@@H]1O` . Value?
Result: 168 to 169 °C

Data origin, for the record: patent US20180037601A1
